- Tested on: M2-10B4 mouse marrow stromal cell line
- Protocol Summary: Alkaline phosphatase (ALP) activity assay in M2 cells
- Type: cell-based
- Test Conditions: 10 μM oxysterols, osteogenic medium, 3 days (FIG. 3A)
Measure Name: induction of alkaline phosphatase activity

Compound	Value Reported
CC(C)CCC[C@](C)(O)[C@H]1CC[C@H]2[C@@H]3CC=C4C[C@@H](O)CC[C@]4(C)[C@H]3CC[C@@]21C [20S, 20(S)-hydroxycholesterol]	induced
CC(C)CC[C@@H](O)[C@@H](C)[C@H]1CC[C@H]2[C@@H]3CC=C4C[C@@H](O)CC[C@]4(C)[C@H]3CC[C@]12C [22R, 22(R)-hydroxycholesterol]	induced
CC(C)CC[C@H](O)[C@@H](C)[C@H]1CC[C@H]2[C@@H]3CC=C4C[C@@H](O)CC[C@]4(C)[C@H]3CC[C@]12C [22S, 22(S)-hydroxycholesterol]	induced
